Attribution: PubChem BioAssay AID1008

tested-target: Bcl-2-related protein A1 (Homo sapiens)
test-name: Bfl-1/Bim complex disruptors – biochemical, multiplexed, bead-based flow cytometry, primary screen (AID 1008);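 further: 0% = wells without compound plus tracer and 100% = blocker peptide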
condition-set: Bim-Bfl-1 binding inhibition, at 10 µM, hits give high values
About 240 (0.13%) of roughly 190,000 compounds were called active. For the sample, actives were picked, then their nearest neighbours and some compounds at random.
recorded-endpoint: inhibition (%)
Respond with the bare value in %.

// known answers, use as guide
- test-smiles: "C=CCn1c(O)c(/C=N/N2CCOCC2)c(=O)[nH]c1=S"
  tested-target: "Bcl-2-related protein A1 (Homo sapiens)"
  u: "%"
  meas-value: 3
- test-smiles: "Cc1cccc(-n2c(O)c(/C=N/N3CCOCC3)c(=O)[nH]c2=S)c1"
  tested-target: "Bcl-2-related protein A1 (Homo sapiens)"
  u: "%"
  meas-value: 41

Input: Give reported inhibition value for "O=c1[nH]c(=S)n(C2CC2)c(O)c1/C=N/N1CCOCC1"
Output: -14

Input: Provide measured inhibition value, entry: "N#Cc1ccc(Cn2cc(C(=O)c3ccco3)c3ccccc32)cc1"
Output: -4
